biological target: human CD33 T320A (human, UniProt P20138 18-364); experiment: flow cytometry, alanine scan
Sequence (P20138 18-364 T320A limits assumed): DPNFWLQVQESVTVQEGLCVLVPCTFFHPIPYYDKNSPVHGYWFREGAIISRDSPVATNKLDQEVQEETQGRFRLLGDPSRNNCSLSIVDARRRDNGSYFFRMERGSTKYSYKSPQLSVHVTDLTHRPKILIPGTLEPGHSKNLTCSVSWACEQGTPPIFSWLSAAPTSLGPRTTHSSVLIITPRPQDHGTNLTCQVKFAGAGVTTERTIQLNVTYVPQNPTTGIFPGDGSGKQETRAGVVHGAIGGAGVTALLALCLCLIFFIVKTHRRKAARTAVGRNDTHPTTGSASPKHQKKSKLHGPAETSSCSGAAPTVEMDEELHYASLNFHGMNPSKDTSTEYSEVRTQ
OBSERVABLE: Mean % WT Binding

So what does the record say about Mean % WT Binding for Refmab #4 (antibody, V domains shown, The alanine scan used IgG or Fab) VH: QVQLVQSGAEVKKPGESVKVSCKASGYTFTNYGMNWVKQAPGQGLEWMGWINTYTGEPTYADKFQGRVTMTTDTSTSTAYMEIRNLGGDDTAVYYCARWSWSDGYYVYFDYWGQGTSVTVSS VL: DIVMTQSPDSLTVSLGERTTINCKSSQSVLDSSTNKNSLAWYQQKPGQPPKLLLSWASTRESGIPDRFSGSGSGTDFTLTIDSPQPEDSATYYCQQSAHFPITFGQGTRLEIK ?
109 % of WT

So what does the record say about Mean % WT Binding for Refmab #2 (antibody, V domains shown, The alanine scan used IgG or Fab) VH: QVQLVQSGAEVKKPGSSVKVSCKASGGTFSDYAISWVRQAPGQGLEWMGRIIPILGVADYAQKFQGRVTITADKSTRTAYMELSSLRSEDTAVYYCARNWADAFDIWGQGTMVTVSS VL: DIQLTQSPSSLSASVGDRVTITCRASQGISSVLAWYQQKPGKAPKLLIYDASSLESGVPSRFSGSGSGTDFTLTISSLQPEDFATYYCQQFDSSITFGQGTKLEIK ?
112 % of WT

So what does the record say about Mean % WT Binding for Refmab #3 (antibody, V domains shown, The alanine scan used IgG or Fab) VH: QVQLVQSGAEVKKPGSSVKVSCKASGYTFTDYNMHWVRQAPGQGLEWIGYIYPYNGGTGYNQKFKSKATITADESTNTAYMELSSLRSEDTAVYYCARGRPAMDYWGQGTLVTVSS VL: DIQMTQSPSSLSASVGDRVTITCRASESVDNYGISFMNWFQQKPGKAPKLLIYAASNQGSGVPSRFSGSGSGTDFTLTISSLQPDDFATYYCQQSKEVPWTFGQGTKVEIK ?
82.4 % of WT

So what does the record say about Mean % WT Binding for Refmab #1 (antibody, V domains shown, The alanine scan used IgG or Fab; also called hP67.6) VH: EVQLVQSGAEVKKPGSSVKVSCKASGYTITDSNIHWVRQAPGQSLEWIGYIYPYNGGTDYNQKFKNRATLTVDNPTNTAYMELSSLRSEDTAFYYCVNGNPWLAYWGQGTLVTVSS VL: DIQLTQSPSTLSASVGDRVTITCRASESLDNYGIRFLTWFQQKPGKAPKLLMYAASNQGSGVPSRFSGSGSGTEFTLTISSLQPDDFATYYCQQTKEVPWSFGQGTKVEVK ?
98.5 % of WT
